Assay: xn = mol fraction of the nth substance listed, in the solute-free solvent
Conditions: 283.15 K; x2 = 0.4
parameter.measured: solubility (g/100 g solution)
Returns: the value as a bare number; no unit string appended.

The cases that follow already have their solubility (g/100 g solution) on record.
compound | parameter.measured | result.value
Cc1nc(C)c(C)nc1C + CO + CC#N | solubility (g/100 g solution) | 32.5
O=CC(O)C(O)C(O)CO (centres undefined) + CO + ClCCl | solubility (g/100 g solution) | 1.64
O=CC(O)C(O)C(O)CO (centres undefined) + CCO + CCCCCC | solubility (g/100 g solution) | 0.18
Cl.NC(C=O)C(O)C(O)C(O)CO (centres undefined) + O + CCO | solubility (g/100 g solution) | 0.614
O=CC(O)C(O)C(O)CO (centres undefined) + CCO + ClCCl | solubility (g/100 g solution) | 1.02

[in] Find the recorded solubility (g/100 g solution) belonging to Cc1nc(C)c(C)nc1C + CCCCO + CC#N and report it.
[out] 28.7

[in] Continue with O=c1cc(-c2ccccc2)oc2cc(O)c(O)c(O)c12 + CCO + O
[out] 0.194

[in] Another compound: O=CC(O)C(O)C(O)CO (centres undefined) + CC(C)O + CCCCCC
[out] 0.164

[in] Now give it for Cl.NC(C=O)C(O)C(O)C(O)CO (centres undefined) + O + CO too.
[out] 2.16

* * *

A collection of molecules and their measured solubility (g/100 g solution)
Test: xn = mol fraction of the nth substance listed, in the solute-free solvent
Details: 283.15 K; x2 = 0.8

molecule | solubility (g/100 g solution)
O=CC(O)C(O)C(O)CO (centres undefined) + CO + ClCCl | 6.81
Cl.NC(C=O)C(O)C(O)C(O)CO (centres undefined) + O + CO | 10.2
Cl.NC(C=O)C(O)C(O)C(O)CO (centres undefined) + O + CCO | 6.88
O=CC(O)C(O)C(O)CO (centres undefined) + CC(C)O + CCCCCC | 0.615
O=CC(O)C(O)C(O)CO (centres undefined) + CCO + ClCCl | 2.05

The record that follows has no solubility (g/100 g solution) shown yet.
[in] What does the data say about its solubility (g/100 g solution)? Entry: O=c1cc(-c2ccccc2)oc2cc(O)c(O)c(O)c12 + CCO + O
[out] 0.474

* * *

Experiment: xn = mol fraction of the nth substance listed, in the solute-free solvent
Conditions: 293.15 K; x2 = 0.3
Classify as follows. Reported solubility (g/100 g solution) greater than or equal to 2: Criterion met. Reported solubility (g/100 g solution) below: Criterion not met.

Solved cases (2 shown):
compound | class
O=CC(O)C(O)C(O)CO (stereo unspecified) + CCO + CCCCCC | Criterion not met
Cc1nc(C)c(C)nc1C + CCCCO + CC#N | Criterion met

[in] Form field: solubility (g/100 g solution) at least 2? Entry: Cc1nc(C)c(C)nc1C + CO + CC#N
[out] Criterion met

[in] What do you have for O=CC(O)C(O)C(O)CO (stereo unspecified) + CCO + ClCCl ?
[out] Criterion not met

[in] Entry O=CC(O)C(O)C(O)CO (stereo unspecified) + CC(C)O + CCCCCC please
[out] Criterion not met

[in] Entry to check: O=CC(O)C(O)C(O)CO (stereo unspecified) + CO + ClCCl
[out] Criterion not met
